Data origin, for the record: patent US20250147039A1

Experiment: Dissociation of chelates in aq. 0.1M HCl at 80° C. (acid decomplexation kinetic inertness) (Chart 19)
Format: physicochemical
Details: 1 week
MEASUREMENT KIND: fraction of intact chelate (%)
Respond numerically; units are % and should not be typed.

**Q:** // query fraction of intact chelate value for entry O=C1C[N@@]2CC[N@]3CC[N@@](CC[N@](CC2)Cc2cccc(n2)-c2cnnn2Cc2cc(-c4ccccc4)cc(n2)C3)CC(=O)[O][Gd][O]1
**A:** 95

**Q:** Reported fraction of intact chelate, compound O=C1C[N@@]2CC[N@]3CC[N@@](CC[N@](CC2)Cc2cccc(n2)-c2cnnn2Cc2cc(-c4ccccc4)cc(n2)C3)CC(=O)[O][Lu][O]1 : ____
**A:** 100

**Q:** Look up fraction of intact chelate: O=C1C[N@@]2CC[N@]3CC[N@@](CC[N@](CC2)Cc2cccc(n2)-c2cnnn2Cc2cc(-c4ccccc4)cc(n2)C3)CC(=O)[O][Er][O]1
**A:** 100

**Q:** Query: fraction of intact chelate; subject: O=C1C[N@@]2CC[N@]3CC[N@@](CC[N@](CC2)Cc2cccc(n2)-c2cnnn2Cc2cc(-c4ccccc4)cc(n2)C3)CC(=O)[O][Tm][O]1
**A:** 100

* * *

Record form. Attribute: fraction of intact chelate. Fill in for each entry.
Assay: Dissociation of chelates in aq. 0.1M HCl at RT (acid decomplexation kinetic inertness) (Chart 20)
Format: physicochemical
Conditions: 1 week
Numbers only; they are read as %.

**Q:** Requested read-out: fraction of intact chelate. Entry: O=C1C[N@@]2CC[N@]3CC[N@@](CC[N@](CC2)Cc2cccc(n2)-c2cnnn2Cc2cc(-c4ccccc4)cc(n2)C3)CC(=O)[O][Er][O]1
**A:** 100

**Q:** Look up fraction of intact chelate for this compound: O=C1C[N@@]2CC[N@]3CC[N@@](CC[N@](CC2)Cc2cccc(n2)-c2cn(nn2)Cc2cc(-c4ccccc4)cc(n2)C3)CC(=O)[O][Gd][O]1
**A:** 6

**Q:** Form field: reported fraction of intact chelate of O=C1C[N@@]2CC[N@]3CC[N@@](CC[N@](CC2)Cc2cccc(n2)-c2cnnn2Cc2cc(-c4ccccc4)cc(n2)C3)CC(=O)[O][Sm][O]1
**A:** 99

**Q:** Form field: reported fraction of intact chelate of O=P1(c2ccccc2)C[N@@]2CC[N@]3CC[N@@](CC[N@](CC2)Cc2cccc(n2)-c2cnnn2Cc2cccc(n2)C3)CP(=O)(c2ccccc2)[O][Gd][O]1 (some centres unmarked)
**A:** 100

**Q:** Recorded fraction of intact chelate of O=C1C[N@@]2CC[N@]3CC[N@@](CC[N@](CC2)Cc2cccc(n2)-c2cnnn2Cc2cc(-c4ccccc4)cc(n2)C3)CC(=O)[O][Tm][O]1 , please.
**A:** 100

* * *

Test: Dissociation of chelates in aq. 6.0M HCl at 80° C. (acid decomplexation kinetic inertness) (Chart 17)
Format: physicochemical
Settings: 1 week
Record form. Attribute: fraction of intact chelate. Fill in for each entry.
Dear colleague, please return just the value in %, with no unit written.

**Q:** I'd like to know its fraction of intact chelate. The molecule in question is O=C1C[N@@]2CC[N@]3CC[N@@](CC[N@](CC2)Cc2cccc(n2)-c2cnnn2Cc2cc(-c4ccccc4)cc(n2)C3)CC(=O)[O][Eu][O]1
**A:** 0

**Q:** Given the entry O=C1C[N@@]2CC[N@]3CC[N@@](CC[N@](CC2)Cc2cccc(n2)-c2cnnn2Cc2cc(-c4ccccc4)cc(n2)C3)CC(=O)[O][Cd][O]1 , report its measured fraction of intact chelate.
**A:** 0

**Q:** What value of fraction of intact chelate has been recorded for this entry: O=C1C[N@@]2CC[N@]3CC[N@@](CC[N@](CC2)Cc2cccc(n2)-c2cnnn2Cc2cc(-c4ccccc4)cc(n2)C3)CC(=O)[O][Sm][O]1
**A:** 0

**Q:** Looking for the measured fraction of intact chelate of O=C1C[N@@]2CC[N@]3CC[N@@](CC[N@](CC2)Cc2cccc(n2)-c2cnnn2Cc2cc(-c4ccccc4)cc(n2)C3)CC(=O)[O][Er][O]1 , can you help?
**A:** 71

* * *

Assignment: determine reported conversion to 1,5-cz-[Ln(Lig)], Tm^III for the given compounds.
Test: Formation of 1,5-cz-[Ln(Lig)] from Lig and Ln^III ions (metal dependent click-zip), MOPS/NaOH buffer pH 7.0, analytical HPLC (Charts 1, 2)
Conditions: Tm^III; after 1 hour at 80° C.; MOPS/NaOH buffer pH 7.0
Note: unit % is implicit; provide only the numeric part.

**Q:** Could you share which conversion to 1,5-cz-[Ln(Lig)], Tm^III value was measured for [N-]=[N+]=NCc1cccc(CN2CCN(CC(=O)O)CCN(Cc3cccc(C#CC45CC6CC(CC(C6)C4)C5)n3)CCN(CC(=O)O)CC2)n1 ?
**A:** 4

**Q:** Please look up its conversion to 1,5-cz-[Ln(Lig)], Tm^III: CC(C)(C)C#Cc1cccc(CN2CCN(CC(=O)O)CCN(Cc3cccc(CN=[N+]=[N-])n3)CCN(CC(=O)O)CC2)n1
**A:** 4

**Q:** Given C#Cc1cccc(CN2CCN(CC(=O)O)CCN(Cc3cc(C(F)(F)F)cc(CN=[N+]=[N-])n3)CCN(CC(=O)O)CC2)n1 , state its recorded conversion to 1,5-cz-[Ln(Lig)], Tm^III.
**A:** 45

**Q:** // returns reported conversion to 1,5-cz-[Ln(Lig)], Tm^III for input C#Cc1cccc(CN2CCN(CC(=O)O)CCN(Cc3cc(C(=O)OC)cc(CN=[N+]=[N-])n3)CCN(CC(=O)O)CC2)n1
**A:** 19

* * *

Assay: Formation of 1,5-cz-[Ln(Lig)] from Lig and Ln^III ions (metal dependent click-zip), MOPS/NaOH buffer pH 7.0, analytical HPLC (Charts 1, 2)
Details: Sm^III; after 1 hour at 80° C.; MOPS/NaOH buffer pH 7.0
Would you kindly list conversion to 1,5-cz-[Ln(Lig)], Sm^III for each of these molecules?
Response body: numeric value in %, unit text excluded.

**Q:** Recorded conversion to 1,5-cz-[Ln(Lig)], Sm^III for CC(C)(C)C#Cc1cccc(CN2CCN(CC(=O)O)CCN(Cc3cccc(CN=[N+]=[N-])n3)CCN(CC(=O)O)CC2)n1 [TD959] , please?
**A:** 1

**Q:** Any idea what its conversion to 1,5-cz-[Ln(Lig)], Sm^III is? The molecule is [N-]=[N+]=NCc1cccc(CN2CCN(CC(=O)O)CCN(Cc3cccc(C#CI)n3)CCN(CC(=O)O)CC2)n1 [TD1204]
**A:** 1

**Q:** Item under review: CC(C)(C#Cc1cccc(CN2CCN(CC(=O)O)CCN(Cc3cccc(CN=[N+]=[N-])n3)CCN(CC(=O)O)CC2)n1)NC(=O)OC(C)(C)C [TD1105] . Reported conversion to 1,5-cz-[Ln(Lig)], Sm^III?
**A:** 1

**Q:** Suppose we examine the molecule [N-]=[N+]=NCc1cc(-c2ccccc2)cc(CN2CCN(CC(=O)O)CCN(Cc3cccc(C#CCN)n3)CCN(CC(=O)O)CC2)n1 [TD722] ; what conversion to 1,5-cz-[Ln(Lig)], Sm^III value has been reported?
**A:** 1

**Q:** Return reported conversion to 1,5-cz-[Ln(Lig)], Sm^III; argument: C#Cc1cccc(CN2CCN(CP(=O)(O)c3ccccc3)CCN(Cc3cccc(CN=[N+]=[N-])n3)CCN(CP(=O)(O)c3ccccc3)CC2)n1 [TD921]
**A:** 1

**Q:** Using the record for [N-]=[N+]=NCc1cccc(CN2CCN(CC(=O)O)CCN(Cc3cccc(C#CC45CC6CC(CC(C6)C4)C5)n3)CCN(CC(=O)O)CC2)n1 [TD992] , report its conversion to 1,5-cz-[Ln(Lig)], Sm^III.
**A:** 1

* * *

Experiment: Formation of 1,5-cz-[Ln(Lig)] from Lig and Ln^III ions (metal dependent click-zip), MOPS/NaOH buffer pH 7.0, analytical HPLC (Charts 1, 2)
Details: Lu^III; after 1 week at 80° C.; MOPS/NaOH buffer pH 7.0
MEASUREMENT KIND: conversion to 1,5-cz-[Ln(Lig)], Lu^III (%)
The reply should contain only the number, in %.

**Q:** What value of measured conversion to 1,5-cz-[Ln(Lig)], Lu^III is listed for C#Cc1cccc(CN2CCN(CC(=O)O)CCN(Cc3cc(C(=O)OC(C)(C)C)cc(CN=[N+]=[N-])n3)CCN(CC(=O)O)CC2)n1 ?
**A:** 0

**Q:** I am curious: what conversion to 1,5-cz-[Ln(Lig)], Lu^III value has been reported for [N-]=[N+]=NCc1cccc(CN2CCN(CC(=O)O)CCN(Cc3cccc(C#CC45CC6CC(CC(C6)C4)C5)n3)CCN(CC(=O)O)CC2)n1 ?
**A:** 99

**Q:** Record request: conversion to 1,5-cz-[Ln(Lig)], Lu^III value, item C#Cc1cccc(CN2CCN(CC(=O)O)CCN(Cc3cc(C(=O)OC)cc(CN=[N+]=[N-])n3)CCN(CC(=O)O)CC2)n1
**A:** 0
